tested on: PC-3; test: Growth inhibition of human PC-3 cells assessed as cell growth at 10 uM incubated for 48 hrs by sulforhodamine B assay relative to control; type: functional; details: read-out: Activity

>  <molecule_smiles>
CC1(C)CCc2cc(-c3ccn(S(=O)(=O)c4ccc(C(F)(F)F)cc4)n3)ccc2O1

>  <growth at 10 µM, %>
76.6

$$$$
>  <molecule_smiles>
Nc1c(C(=O)Nc2ccccc2)sc2nc3c(cc12)CN(Cc1ccccc1)CC3

>  <growth at 10 µM, %>
70

$$$$
>  <molecule_smiles>
Cc1cccc(NC(=O)c2sc3nc4c(cc3c2N)C(=O)CCC4)c1

>  <growth at 10 µM, %>
20

$$$$
>  <molecule_smiles>
Cc1cc(C)c(NC(=O)c2sc3nc4c(cc3c2N)CN(Cc2ccccc2)CC4)c(C)c1

>  <growth at 10 µM, %>
25

$$$$
>  <molecule_smiles>
COc1ccc(-c2ccn(S(=O)(=O)c3ccc(C)cc3)n2)cc1

>  <growth at 10 µM, %>
81.2

$$$$
>  <molecule_smiles>
Nc1c(C(=O)N(c2ccccc2)c2ccccc2)sc2nc3c(cc12)C(=O)CCC3

>  <growth at 10 µM, %>
103

$$$$

###

A collection of molecules and their measured growth at 10 µM
test system: PC-3; assay: Growth inhibition of human PC-3 cells assessed as cell growth at 10 uM incubated for 48 hrs by sulforhodamine B assay relative to control; assay type: functional; conditions: read-out: Activity
experimental_readout: growth at 10 µM (%)

>  <molecule_smiles>
CC1(C)CCc2cc(-c3ccn(S(=O)(=O)c4ccc(Cl)cc4Cl)n3)ccc2O1

>  <scale_unit>
%

>  <experimental_result>
62.3

$$$$
>  <molecule_smiles>
CC(=O)c1ccc2c(N)c(C(=O)Nc3ccccc3)sc2n1

>  <scale_unit>
%

>  <experimental_result>
97.4

$$$$
>  <molecule_smiles>
Cc1cc(C)cc(S(=O)(=O)n2ccc(-c3ccc4c(c3)CCC(C)(C)O4)n2)c1

>  <scale_unit>
%

>  <experimental_result>
82.4

$$$$
>  <molecule_smiles>
O=S(=O)(c1ccccc1)n1ccc(-c2ccc3c(c2)CCO3)n1

>  <scale_unit>
%

>  <experimental_result>
84.2

$$$$
>  <molecule_smiles>
CC(=O)c1cccc(NC(=O)c2sc3nc4c(cc3c2N)C(=O)CCC4)c1

>  <scale_unit>
%

>  <experimental_result>
96.3

$$$$
>  <molecule_smiles>
Cc1ccc(S(=O)(=O)n2ccc(-c3ccc(OCCCF)cc3)n2)cc1

>  <scale_unit>
%

>  <experimental_result>
73.5

$$$$
>  <molecule_smiles>
Cc1cccc(NC(=O)c2sc3nc4c(cc3c2N)CN(Cc2ccccc2)CC4)c1

>  <scale_unit>
%

>  <experimental_result>
98

$$$$
>  <molecule_smiles>
CC(C)N1CCc2nc3sc(C(=O)Nc4ccccc4)c(N)c3cc2C1

>  <scale_unit>
%

>  <experimental_result>
81.9

$$$$
>  <molecule_smiles>
CC(=O)Nc1ccc(S(=O)(=O)n2ccc(-c3ccc4c(c3)CCC(C)(C)O4)n2)cc1

>  <scale_unit>
%

>  <experimental_result>
44.4

$$$$
>  <molecule_smiles>
COc1cccc(NC(=O)c2sc3nc4c(cc3c2N)CN(Cc2ccccc2)CC4)c1

>  <scale_unit>
%

>  <experimental_result>
54

$$$$
